target: Group 3 secretory phospholipase A2 (Homo sapiens) (UniProt Q9NZ20)
Sequence (Q9NZ20 whole entry, looked up): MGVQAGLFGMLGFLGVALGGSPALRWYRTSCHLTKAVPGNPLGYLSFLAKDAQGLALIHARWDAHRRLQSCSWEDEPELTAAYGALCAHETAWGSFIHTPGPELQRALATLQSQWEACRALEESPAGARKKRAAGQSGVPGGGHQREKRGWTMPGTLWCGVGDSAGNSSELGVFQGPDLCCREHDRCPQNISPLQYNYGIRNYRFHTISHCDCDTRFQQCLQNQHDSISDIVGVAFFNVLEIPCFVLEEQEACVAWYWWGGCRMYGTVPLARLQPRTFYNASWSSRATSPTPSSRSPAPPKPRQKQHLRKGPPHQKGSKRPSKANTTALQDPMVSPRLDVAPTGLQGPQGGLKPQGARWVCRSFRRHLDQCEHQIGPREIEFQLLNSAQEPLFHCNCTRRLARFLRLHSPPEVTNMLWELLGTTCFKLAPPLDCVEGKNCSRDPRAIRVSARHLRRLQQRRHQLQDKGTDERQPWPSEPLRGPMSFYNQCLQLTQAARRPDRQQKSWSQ
test_method_notes: human group III sPLA2 inhibitors, primary screen, biochemical, QFRET, BODIPY PC-A2 liposome substrate (AID 743126)
run_parameters: QFRET BODIPY PC-A2 liposome hydrolysis, fluorescence; at 12.2 µM
In all, about 370,000 compounds went through this assay and about 2,100 (0.57%) were called active.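 Rule for the calls: active = inhibition above mean plus 3 SD of compounds lying within the high and low control bounds (cut at about 19% in these data); inactive = the rest.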 The sample holds actives, similar compounds and a random draw of the others, so the mix is not that of the screen.
Outcomes you can answer with include only these: active, inactive

Q. For COc1cccc(CNC(=O)C2CCCN(c3nc4ccccc4o3)C2)c1OC (stereo not given) , what call appears in the results of this test?
A. inactive

Q. # outcome recorded in this test, key = CNC(=S)N/N=C/c1ccc(OCc2ccccc2)c(Br)c1
A. inactive

Q. Test call for this compound, please: CCOC(=O)C1(Cc2cccc(OC)c2)CCCN(S(=O)(=O)c2cccnc2)C1 (stereo not given)
A. inactive

Q. Hi, do you know how Cc1nc2ccc(C(=O)N3CCN(C(=O)C(C)(C)C)CC3)cc2n1C1CCCC1 came out in this test?
A. inactive

Q. Outcome logged for COc1cc(/C=N/n2c(C)n[nH]c2=S)ccc1OCc1ccccc1 in this assay:
A. active

---

target: Group 3 secretory phospholipase A2 (Homo sapiens) (UniProt Q9NZ20)
test_method_notes: human group III sPLA2 inhibitors, primary screen, biochemical, QFRET, BODIPY PC-A2 liposome substrate (AID 743126)
run_parameters: QFRET BODIPY PC-A2 liposome hydrolysis, fluorescence; at 12.2 µM
Hit rate of the full screen: of about 370,000 compounds, about 2,100 (0.57%) were called active.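 The calls were made as follows: active = inhibition above mean plus 3 SD of compounds lying within the high and low control bounds (cut at about 19% in these data); inactive = the rest.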 Many of the other results were omitted from the sample, so actives are more common in it than they were.
I would appreciate it if you answered using one of these outcomes: active, inactive

Q. Recorded call for Cc1ccc(-c2nnc(SCC(=O)Nc3ccc(Oc4ccccc4)cc3)n2Cc2ccco2)cc1 ?
A. inactive

Q. What outcome does the record of this test show for O=C(NNC(=O)C1C2CCC(C2)C1C(=O)O)c1ccc(Cl)cc1 (centres undefined) ?
A. inactive

Q. Given CC(C)OC(=O)c1ccc(NCc2cc(O)ccc2O)cc1Cl , state the outcome it received in this test.
A. active

Q. Any idea what this test logged for CCOC(=O)C(C)n1cnc2c(nnn2-c2ccc(F)cc2)c1=O (centres undefined) ?
A. inactive

Q. I'd appreciate the recorded outcome for CCCCCOc1ccc(CSC2=NCCN2)cc1[N+](=O)[O-] from this test.
A. inactive

Q. Please share the test call associated with COC(=O)[C@]12C[C@H](CC(=O)NCc3ccccc3)C(=O)N(CCC3=CCCCC3)C1=C[C@H](C(C)C)O[C@@H]2C1CC1 .
A. inactive

Q. Call for entry CCCCNC(=O)C[C@H]1C(=O)N(Cc2ccc(OC)cc2)C2=CCCC[C@@]21C(=O)OCC :
A. inactive

Q. Write down the call the test reported for this compound. Item: Cc1c[nH]c2cccc(-c3ccc(Cl)cc3)c12
A. inactive

Q. Which outcome was assigned to COc1cccc(NC(C)=[N+](C)CCNS(=O)(=O)c2ccc(Cl)cc2)c1 in this test?
A. active
